Test system: S. aureus Mu3
Assay: Secondary screening of compound 13 analogues in combination with gentamicin (growth by OD 595 nm)
Test Context: [Cpd] 5 μM; [Genta] 200 ug/ml; relative to DMSO = 1

>  <Molecule>
COC(=O)CN1C(=O)C(=Cc2ccc(OCc3ccccc3)cc2)SC1=S

>  <relative growth>
0.98

$$$$
>  <Molecule>
COc1cc(/C=C2\SC(=S)N(CC(=O)O)C2=O)ccc1OCc1ccc(Br)cc1

>  <relative growth>
0.83

$$$$
>  <Molecule>
COc1cc(C=C2SC(=S)N(CC(=O)O)C2=O)ccc1OCc1ccc(F)cc1Cl

>  <relative growth>
0.87

$$$$
>  <Molecule>
CC(C(=O)O)N1C(=O)/C(=C/c2ccc(Cl)cc2)SC1=S (centres unmarked)

>  <relative growth>
0.89

$$$$

* * *

Test system: S. aureus Mu3
Assay: Secondary screening of compound 13 analogues in combination with gentamicin (growth by OD 595 nm)
Test Context: [Cpd] 5 μM; [Genta] 200 ug/ml; relative to DMSO = 1
Some molecules, each annotated with its measured relative growth.

>  <Molecule>
COc1ccc(/C=C2\SC(=S)N(CC(=O)O)C2=O)cc1OCc1ccccc1 [Compound 24]

>  <relative growth>
0.95

$$$$
>  <Molecule>
O=C(O)CN1C(=O)C(=Cc2ccc(OCc3ccc(Cl)cc3)cc2)SC1=S [Compound 82]

>  <relative growth>
0.61

$$$$
>  <Molecule>
COc1cc(/C=C2\SC(=S)N(CC(=O)O)C2=O)ccc1OCc1ccccc1 [Compound 22]

>  <relative growth>
1.05

$$$$
>  <Molecule>
O=C(O)CN1C(=O)/C(=C/c2ccccc2)SC1=S [Compound 1]

>  <relative growth>
1.45

$$$$
>  <Molecule>
CCCOc1ccc(/C=C2\SC(=S)N(CC(=O)O)C2=O)cc1 [Compound 48]

>  <relative growth>
0.96

$$$$

* * *

Some molecules, each annotated with its measured activity at 50 µM.
Tested on: S. aureus Mu3
Assay: Secondary screening of compound 13 analogues in combination with gentamicin (growth by OD 595 nm)
Test Context: Staphylococcus aureus, MU3, 16 h, read-out: relative growth
Readout Type: activity at 50 µM (%)

>  <Molecule>
O=C(O)CN1C(=O)/C(=C/c2cccc(OCc3ccc(Cl)cc3Cl)c2)SC1=S

>  <Reported Result>
43

$$$$
>  <Molecule>
COc1ccc(/C=C2\SC(=S)N(CC(=O)O)C2=O)cc1OCc1ccc(Cl)cc1Cl

>  <Reported Result>
97

$$$$
>  <Molecule>
COc1cc(/C=C2\SC(=S)N(CC(=O)O)C2=O)ccc1OCc1ccccc1F

>  <Reported Result>
95

$$$$
>  <Molecule>
COc1ccc(/C=C2\SC(=S)N(CC(=O)O)C2=O)cc1OCc1ccc(Cl)cc1

>  <Reported Result>
79

$$$$
>  <Molecule>
O=C(O)CN1C(=O)/C(=C/c2cccc(OCc3ccccc3Cl)c2)SC1=S

>  <Reported Result>
76

$$$$
>  <Molecule>
COc1cc(/C=C2\SC(=S)N(CC(=O)O)C2=O)ccc1OCc1ccc(Cl)cc1

>  <Reported Result>
79

$$$$
>  <Molecule>
CCCOc1ccc(/C=C2\SC(=S)N(CC(=O)O)C2=O)cc1

>  <Reported Result>
87

$$$$
>  <Molecule>
COc1cc(/C=C2\SC(=S)N(CC(=O)O)C2=O)ccc1OCc1ccc(Br)cc1

>  <Reported Result>
98

$$$$
>  <Molecule>
COc1cc(/C=C2\SC(=S)N(CC(=O)O)C2=O)ccc1OCc1ccccc1

>  <Reported Result>
94

$$$$
>  <Molecule>
CCOc1cc(/C=C2\SC(=S)N(CC(=O)O)C2=O)ccc1OCc1ccc(Cl)c(Cl)c1

>  <Reported Result>
113

$$$$
>  <Molecule>
CCOc1ccc(/C=C2\SC(=S)N(CC(=O)O)C2=O)cc1

>  <Reported Result>
98

$$$$
>  <Molecule>
O=C(O)CN1C(=O)/C(=C/c2ccc(OCc3ccccc3)cc2)SC1=S

>  <Reported Result>
88

$$$$
>  <Molecule>
CCOc1cc(/C=C2\SC(=S)N(CC(=O)O)C2=O)ccc1OCc1ccc(Cl)cc1

>  <Reported Result>
91

$$$$
>  <Molecule>
COc1ccc(/C=C2\SC(=S)N(CC(=O)O)C2=O)cc1OCc1ccccc1

>  <Reported Result>
92

$$$$
>  <Molecule>
O=C(O)CN1C(=O)/C(=C/c2cccc(OCc3ccccc3F)c2)SC1=S

>  <Reported Result>
84

$$$$
>  <Molecule>
CC(C(=O)O)N1C(=O)/C(=C/c2ccc(Cl)cc2)SC1=S (stereo not shown)

>  <Reported Result>
88

$$$$

* * *

Some compounds, each annotated with its measured relative growth.
System: S. aureus Mu3
Assay: Secondary screening of compound 13 analogues in combination with gentamicin (growth by OD 595 nm)
Test Context: [Cpd] 5 μM; [Genta] 200 ug/ml; relative to DMSO = 1

>  <Compound>
CCOc1ccc(/C=C2\SC(=S)N(CC(=O)O)C2=O)cc1 [Compound 31]

>  <System Under Test>
S. aureus Mu3

>  <relative growth>
0.95

$$$$
>  <Compound>
O=C(O)CN1C(=O)/C(=C/c2cccc(OCc3ccccc3F)c2)SC1=S [Compound 63]

>  <System Under Test>
S. aureus Mu3

>  <relative growth>
0.88

$$$$
>  <Compound>
COc1cc(/C=C2\SC(=S)N(CC(=O)O)C2=O)ccc1OCc1ccc(Cl)cc1 [Compound 6]

>  <System Under Test>
S. aureus Mu3

>  <relative growth>
1.11

$$$$

* * *

Test system: S. aureus Mu3
Assay: Secondary screening of compound 13 analogues in combination with gentamicin (growth by OD 595 nm)
Test Context: [Cpd] 50 μM; [Genta] 100 ug/ml; relative to DMSO = 1
Returns one of fulfilled or not fulfilled; fulfilled when relative growth is >= 0.9.

>  <Compound>
CCCOc1ccc(/C=C2\SC(=S)N(CC(=O)O)C2=O)cc1

>  <Label>
not fulfilled

$$$$
>  <Compound>
CCOc1ccc(/C=C2\SC(=S)N(CC(=O)O)C2=O)cc1

>  <Label>
fulfilled

$$$$
>  <Compound>
COCc1ccccc1

>  <Label>
not fulfilled

$$$$
>  <Compound>
COc1cc(/C=C2\SC(=S)N(CC(=O)O)C2=O)ccc1OCc1ccc(Br)cc1

>  <Label>
fulfilled

$$$$
>  <Compound>
O=C(O)CN1C(=O)/C(=C/c2ccccc2)SC1=S

>  <Label>
fulfilled

$$$$
>  <Compound>
COC(=O)c1ccccc1 [Compound 2]

>  <Label>
not fulfilled

$$$$

* * *

Some compounds, each annotated with its measured activity at 20 µM.
Test system: S. aureus Mu3
Assay: Secondary screening of compound 13 analogues in combination with gentamicin (growth by OD 595 nm)
Test Context: Staphylococcus aureus, MU3, 16 h, read-out: relative growth
Readout Type: activity at 20 µM (%)

>  <Compound>
COc1ccc(/C=C2\SC(=S)N(CC(=O)O)C2=O)cc1OCc1ccc(Cl)cc1Cl

>  <Readout Type>
activity at 20 µM

>  <Measurement Unit>
%

>  <Reported Result>
85

$$$$
>  <Compound>
COc1ccc(/C=C2\SC(=S)N(CC(=O)O)C2=O)cc1OCc1ccc(Cl)cc1

>  <Readout Type>
activity at 20 µM

>  <Measurement Unit>
%

>  <Reported Result>
97

$$$$
>  <Compound>
COc1cc(/C=C2\SC(=S)N(CC(=O)O)C2=O)ccc1OCc1ccc(Br)cc1

>  <Readout Type>
activity at 20 µM

>  <Measurement Unit>
%

>  <Reported Result>
103

$$$$
>  <Compound>
O=C(O)CN1C(=O)/C(=C/c2cccc(OCc3ccc(Cl)cc3Cl)c2)SC1=S

>  <Readout Type>
activity at 20 µM

>  <Measurement Unit>
%

>  <Reported Result>
74

$$$$
>  <Compound>
COc1ccc(/C=C2\SC(=S)N(CC(=O)O)C2=O)cc1OCc1ccccc1

>  <Readout Type>
activity at 20 µM

>  <Measurement Unit>
%

>  <Reported Result>
93

$$$$
>  <Compound>
CCOc1cc(/C=C2\SC(=S)N(CC(=O)O)C2=O)ccc1OCc1ccc(Cl)cc1

>  <Readout Type>
activity at 20 µM

>  <Measurement Unit>
%

>  <Reported Result>
78

$$$$
>  <Compound>
O=C(O)CN1C(=O)/C(=C/c2ccc(OCc3ccccc3)cc2)SC1=S

>  <Readout Type>
activity at 20 µM

>  <Measurement Unit>
%

>  <Reported Result>
109

$$$$
>  <Compound>
CCCOc1ccc(/C=C2\SC(=S)N(CC(=O)O)C2=O)cc1

>  <Readout Type>
activity at 20 µM

>  <Measurement Unit>
%

>  <Reported Result>
95

$$$$
>  <Compound>
COc1cc(/C=C2\SC(=S)N(CC(=O)O)C2=O)ccc1OCc1ccccc1F

>  <Readout Type>
activity at 20 µM

>  <Measurement Unit>
%

>  <Reported Result>
91

$$$$
>  <Compound>
COc1cc(/C=C2\SC(=S)N(CC(=O)O)C2=O)ccc1OCc1ccccc1

>  <Readout Type>
activity at 20 µM

>  <Measurement Unit>
%

>  <Reported Result>
101

$$$$
>  <Compound>
CCOc1cc(/C=C2\SC(=S)N(CC(=O)O)C2=O)ccc1OCc1ccc(Cl)c(Cl)c1

>  <Readout Type>
activity at 20 µM

>  <Measurement Unit>
%

>  <Reported Result>
109

$$$$
>  <Compound>
COc1cc(/C=C2\SC(=S)N(CC(=O)O)C2=O)ccc1OCc1ccc(Cl)cc1

>  <Readout Type>
activity at 20 µM

>  <Measurement Unit>
%

>  <Reported Result>
114

$$$$
>  <Compound>
O=C(O)CN1C(=O)/C(=C/c2cccc(OCc3ccccc3F)c2)SC1=S

>  <Readout Type>
activity at 20 µM

>  <Measurement Unit>
%

>  <Reported Result>
93

$$$$
>  <Compound>
CCOc1ccc(/C=C2\SC(=S)N(CC(=O)O)C2=O)cc1

>  <Readout Type>
activity at 20 µM

>  <Measurement Unit>
%

>  <Reported Result>
96

$$$$
>  <Compound>
O=C(O)CN1C(=O)/C(=C/c2cccc(OCc3ccccc3Cl)c2)SC1=S

>  <Readout Type>
activity at 20 µM

>  <Measurement Unit>
%

>  <Reported Result>
91

$$$$
>  <Compound>
CC(C(=O)O)N1C(=O)/C(=C/c2ccc(Cl)cc2)SC1=S (stereo not shown)

>  <Readout Type>
activity at 20 µM

>  <Measurement Unit>
%

>  <Reported Result>
89

$$$$
